Test: JC-1 mitochondrial signal, unstimulated MM1S myeloma – cell-based, JC-1 fluorescence, 24 h, 100 nL compound, profiling panel (AID 1170); further: test concentration not given here
Details: MM1S mitochondrial potential, higher = more signal
Could you please report measured z-score for the items listed next?
Just the number, please, no unit after it.

Lookup: Suppose we examine the compound `CCCC=C(CCC)[C@@H](NC(=O)c1ccc(C(F)(F)F)cc1)c1ccc(C(F)(F)F)cc1` ; what z-score value has been reported?
Found: -0.678

Lookup: Entry to check: `C=C(CCCC)/C(=C/C[C@H](OC(=O)c1ccncc1)c1ccccc1OCCO)c1cc(C(=O)OC)ccc1OC`
Found: 0.732

Lookup: Entry to check: O=C1C2C=CC(C(O)c3c(F)cccc3Cl)N(Nc3ccc([N+](=O)[O-])cc3)C2C(=O)N1c1ccccc1 (stereo not drawn)
Found: -0.542

Lookup: Entry to check: COc1ccc(C(O)C2C=CC3C(=O)N(c4ccccc4)C(=O)C3N2Nc2ccc([N+](=O)[O-])cc2)c2ccccc12 (stereo not drawn)
Found: -1.32

Lookup: Entry to check: `COCCOC(=O)N1C(=O)[C@@]2(c3cc(C#CCC(C(=O)OC)C(=O)OC)ccc31)[C@H](C(=O)Nc1nc3ccccc3s1)[C@H]1C(=O)O[C@H](c3ccccc3)[C@H](c3ccccc3)N1[C@@H]2c1ccc(OCCO)cc1`
Found: 0.327

Lookup: Entry to check: `COc1ccc([Si](C)(C)[C@H]2[C@H](CC(=O)N3CCC[C@H]3CO)O[C@@]3(C(=O)N(Cc4ccc(N5CCCCC5=O)cc4)c4ccccc43)[C@@H]2C)cc1`
Found: -0.184

Lookup: Entry to check: [N-]=[N+]=NCc1ccccc1[C@@H]1OC(c2ccc(OCCCO)cc2)=N[C@]1(Cc1ccccc1N=[N+]=[N-])C(=O)NCC(O)CO (stereo partly drawn)
Found: -0.6

Lookup: Entry to check: COc1ccc(C(O)C2C=CC3C(=O)NC(=O)C3N2Nc2ccc(Cl)cc2Cl)c2ccccc12 (stereo not drawn)
Found: 0.533

Lookup: Entry to check: Cc1ccccc1C(O)C1C=CC2C(=O)N(c3ccccc3)C(=O)C2N1Nc1ccccc1 (stereo not drawn)
Found: -0.638

Lookup: Entry to check: `CO[C@H]1O[C@H](CO)[C@@H](OC(=O)Nc2ccccc2)[C@H](OC(=O)Nc2ccccc2)[C@H]1OC(=O)Nc1ccccc1`
Found: -1.06

Lookup: Entry to check: CC1CC/C=C\[C@H]2OC34C=CCN(c5ccc(Cl)cc5)C(=O)[C@H]3N(CCCCCCO)C(=O)[C@]4(C)C2C(=O)O1 (stereo partly drawn)
Found: -0.439

Lookup: Entry to check: `COc1ccc([Si](C)(C)[C@@H]2[C@@H](CC(=O)N(CCO)Cc3ccccc3)O[C@]3(C(=O)N(Cc4ccc(N5C(=O)c6cccc7cccc5c67)cc4)c4ccccc43)[C@H]2C)cc1`
Found: -1.18

Lookup: Entry to check: `COc1ccc(CCNC(=O)[C@@H]2c3ccccc3C(=O)N(Cc3ccccc3OC)[C@H]2c2ccc(CO)cc2)cc1`
Found: -0.42

Lookup: Entry to check: `COCCOC(=O)N1C(=O)[C@@]2(c3ccccc31)[C@H](C(=O)N1CCN(c3ncccn3)CC1)[C@H]1C(=O)O[C@H](c3ccccc3)[C@H](c3ccccc3)N1[C@@H]2c1ccccc1OCCO`
Found: -0.742

Lookup: Entry to check: `COCCCNC(=O)[C@@]1(CCC(=O)OC(C)(C)C)COC(c2ccc(OCCCO)cc2)=N1`
Found: 0.012

Lookup: Entry to check: `O=C(NCCN1CCOCC1)[C@@H]1c2ccccc2C(=O)N(Cc2ccccc2C(F)(F)F)[C@H]1c1ccc(CO)cc1`
Found: -0.109

Lookup: Entry to check: `O=C(NC1CC1)[C@@H]1c2ccccc2C(=O)N(Cc2ccc(OC(F)(F)F)cc2)[C@H]1c1ccc(CO)cc1`
Found: 0.825

Lookup: Entry to check: `CCOC(=O)C1=CC[C@@H](c2ccccc2)N(S(=O)(=O)c2ccc(C)cc2)[C@H]1c1ccccc1I`
Found: -1.16

Lookup: Entry to check: CC(C)OC(=O)CC(=O)CC(O)c1cccc([N+](=O)[O-])c1 (stereo not drawn)
Found: -1.38

Lookup: Entry to check: `O=C1[C@@H]2[C@@H](CC(COc3ccccc3)=C([C@H](O)CCc3ccccc3)[C@@H]2CO)C(=O)N1Cc1ccccc1`
Found: -1.33

Lookup: Entry to check: `CCCC[C@H]1C[C@@H]1[C@@H]1N(C(C)=O)[C@H](c2cccc(OC)c2)CC12CC2`
Found: -0.643

Lookup: Entry to check: CCCCC(O)C1C=CC2C(=O)N(c3ccccc3)C(=O)C2N1Nc1ccccc1 (stereo not drawn)
Found: 0.0498

Lookup: Entry to check: `COc1ccccc1CN1C(=O)c2ccccc2[C@](Cc2ccccc2I)(C(=O)NCC(C)C)[C@@H]1c1ccc(CO)cc1`
Found: -0.257

Lookup: Entry to check: `COCCOC(=O)N1C(=O)[C@@]2(c3cc(C#CCC(C(=O)OC)C(=O)OC)ccc31)[C@H](C(N)=O)[C@H]1C(=O)O[C@H](c3ccccc3)[C@H](c3ccccc3)N1[C@@H]2c1ccc(O)cc1`
Found: -2.07

Lookup: Entry to check: CC(C)C[C@@H]1NC(=O)[C@@]23C(=O)N[C@@H](Cc4ccccc4)C2[C@H](C)[C@@]2(C)O[C@H]2C3/C=C/C/C=C\CNC(=O)CNC1=O (stereo partly drawn)
Found: 0.694

Lookup: Entry to check: `CC[C@@H]1C=C(C(=O)O)[C@H](c2ccc(OC)cc2)N1S(=O)(=O)c1ccc(C)cc1`
Found: -0.273

Lookup: Entry to check: `C=CCOC(=O)[C@@H]1[C@H]2C(=O)O[C@H](c3ccccc3)[C@H](c3ccccc3)N2[C@H](c2ccc(OCCOC(=O)[C@H]3C[C@H]4C(=O)NCC(=O)N4[C@H]3c3cccc(OCCO)c3)cc2)[C@@]12C(=O)Nc1ccc(I)cc12`
Found: -1.27

Lookup: Entry to check: `C=C(CCCC)C(=O)CC[C@H](OC(=O)c1ccccc1-c1ccccc1C(=O)O)c1ccc(OCCO)cc1`
Found: 0.258

---

Molecular target: Epidermal growth factor receptor (Homo sapiens)
Assay: compounds binding epidermal growth factor receptor – biochemical, small-molecule microarray, 635 nm fluorescence, primary screen (AID 1104);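 further: score merges 667 nm emission intensity with spot signal to noise over triplicate slides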
Conditions: EGFR binding, higher = more signal
VALUE_KIND: composite z-score
Just the number, please, no unit after it.

Lookup: Param readout= composite z-score; system= Epidermal growth factor receptor (Homo sapiens); entry= `O=C(N1CCOCC1)[C@@]1(Cc2ccccc2)COC(c2ccc(OCCCO)cc2)=N1` ; returns value.
Found: -0.309

Lookup: Entry to check: `N#Cc1ccc(-c2cccc(=O)o2)cc1`
Found: 0.506

Lookup: Entry to check: `O=C(NC1CC1)[C@@H]1c2ccccc2C(=O)N(Cc2cc(C(F)(F)F)cc(C(F)(F)F)c2)[C@H]1c1ccc(CO)cc1`
Found: -0.675

Lookup: Entry to check: `C=C(COC)C(=O)CC[C@@H](OC(C)=O)c1ccccc1OCCO`
Found: -0.0143

Lookup: Entry to check: `CCOC(=O)c1cn(C[C@H](Cc2ccccc2)NC(=O)N[C@H](CO)CCc2oc(C(C)=O)c(C(=O)OC)c2C(=O)OC)nn1`
Found: 0.956

Lookup: Entry to check: `C=CCOC(=O)[C@H]1[C@@H]2C(=O)O[C@@H](c3ccccc3)[C@@H](c3ccccc3)N2[C@@H](c2ccc(OCCOC(=O)[C@@H]3C[C@@H]4C(=O)N[C@@H](CCCCNC(C)=O)C(=O)N4[C@@H]3c3cccc(OCCO)c3)cc2)[C@]12C(=O)Nc1ccccc12`
Found: 0.793

Lookup: Entry to check: `C=CCOC(=O)[C@H]1[C@@H]2C(=O)O[C@@H](c3ccccc3)[C@@H](c3ccccc3)N2[C@@H](c2ccc(OCCOC(=O)[C@H]3C[C@H]4C(=O)N[C@@H](CC(C)C)C(=O)N4[C@H]3c3ccc(O)cc3)cc2)[C@]12C(=O)Nc1ccccc12`
Found: 1.41

Lookup: Entry to check: `CC(C)NC(=O)[C@@]1(C)c2ccccc2C(=O)N(Cc2ccccc2)[C@H]1c1ccc(CO)cc1`
Found: -0.921

---

Experiment: growth of efflux-deficient E. coli DRC39 – strain DRC39, OD650, 48 h, E. coli filamentation inducers, primary screen (AID 1179);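 further: screen aims at cell division blockers that make cells filament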
Conditions: E. coli DRC39 delta-acrAB growth, higher = more signal, called active from +8 up or from −8 down
Note to self: values exactly at -0.5 are class 1. So z-score at or above -0.5 is class 1, below is class 0.

Lookup: Is z-score at least -0.5? Consider `COCCn1c(C(=O)N(C)C)cc2c1C[C@H]1CN(C(=O)c3ccccc3)[C@@](Cc3ccc(OC)cc3)(C(=O)OC)[C@@H]21`
Found: class 1

Lookup: Entry to check: `CCCCCCc1nc(-c2ccc(-c3ccc(Cl)c(Cl)c3)o2)cc2c1[Si](C(C)C)(C(C)C)OC2`
Found: class 1

Lookup: Entry to check: `COc1ccc([Si](C)(C)[C@H]2[C@H](CCO)O[C@@]3(C(=O)N(Cc4ccc(NC(=O)[C@H](C)O)cc4)c4ccccc43)[C@@H]2C)cc1`
Found: class 0

Lookup: Entry to check: `CC(C)=C1C(=O)C(c2ccccc2)=C2CN3C(=O)N(CCc4ccccc4)C(=O)[C@]3(C)[C@H]21`
Found: class 1

Lookup: Entry to check: `O=C1C[C@]2(c3ccc([N+](=O)[O-])cc3)C(=O)N(C3CC3)c3cc(CO)ccc3[C@H]2N1C1CCCCC1`
Found: class 1

Lookup: Entry to check: `O=C(NC1CC1)[C@@H]1c2ccccc2C(=O)N(Cc2ccc(OC(F)(F)F)cc2)[C@H]1c1ccc(CO)cc1`
Found: class 1

Lookup: Entry to check: `C=C1C(=O)C=C2CN(C(=O)c3ccccc3)[C@@](Cc3ccc(OC)cc3)(C(=O)OC)[C@@H]12`
Found: class 0

These entries and their values trace back to PubChem BioAssay.
